- Test system: COLO 205 colon
- assay_protocol: NCI-60 one-dose screen, 48 h (100 = growth as untreated, 0 = no growth, -100 = all killed)
- measurement_setup: 10 µM unless noted
About 83,000 compounds went through this panel and 20% of them were active in at least one assay; those are over-represented in the sample as a whole.
Catalogue of growth readings, one per entry.
Provide the reading as a plain figure in %.

compound	assayed_target	reported_result
COc1cccc(NC(=O)Cn2cc3c(=O)oc4ccccc4c3n2)c1	COLO 205 colon	101
CCNC(=O)C1CCCN1C(=O)C(CCCN=C(N)N)NC(=O)C(CC(C)C)NC(=O)C(CC(C)C)NC(=O)C(Cc1ccc(O)cc1)NC(=O)C(CO)NC(=O)C(Cc1c[nH]c2ccccc12)NC(=O)C(Cc1cnc[nH]1)NC(=O)C1CCC(=O)N1 (configuration not stated)	COLO 205 colon	94.9
CCCCCCCCCCCCCCCCCCOc1cccc(CCOP(=O)(O)OCC[N+](C)(C)C)c1	COLO 205 colon	97.4

Which growth value belongs to CC(C)CCN(CCCNc1c2c(nc3ccccc13)CCCC2)CCC(C)C ? 61.7

Which growth value belongs to CCC(C)NCC(=O)O (configuration not stated) ? 107

Which growth value belongs to O=S(=O)(NCCNc1cc(-c2cn(-c3ccccc3)nc2-c2ccccc2)ccn1)c1cccc2ccccc12 ? 8.28

Which growth value belongs to CCN(CC)P(=O)(N(CC)CC)N(CCCSC/C=C(\C)CC/C=C(\C)CCC=C(C)C)CCCN1CCN(C)CC1 ? 105

Which growth value belongs to CCCn1c(=S)sc2c(Cl)nc(C)nc21 ? 43.5

Which growth value belongs to COc1ccc(C2CC(=O)Nc3c2c(C)nn3-c2nc3ccccc3[nH]2)cc1OC (configuration not stated) ? 106

Which growth value belongs to COc1cc(/C=C/C(=O)c2ccc(NC(=O)CN3CCN(c4cc5c(cc4F)c(=O)c(C(=O)O)cn5C4CC4)CC3)cc2)cc(OC)c1OC ? -12.8

Which growth value belongs to COc1cccc(/C=C/C(=O)c2sc(Nc3ccc(O)cc3)nc2C)c1 ? 115

###

- System: SK-MEL-28 melanoma
- assay_protocol: NCI-60 one-dose screen, 48 h (100 = growth as untreated, 0 = no growth, -100 = all killed)
- measurement_setup: 10 µM unless noted
This is part of a sample that, as a whole, favours compounds with a hit. Of some 83,000 tested, about 20% had one in any assay.
growth of 60% or higher: rule met. Under 60%: rule not met.

Reference set (4 entries):
compound	assayed_target	cat
CC(C)(C)OC(=O)N[C@@H](Cc1ccccc1)C(=O)N(Cc1ccccc1)C1(C(=O)NCc2ccccc2)CCN(Cc2ccccc2)CC1	SK-MEL-28 melanoma	rule met
COc1ccc(NC(=O)/N=c2\oc3c(OC)cccc3cc2-c2cc3ccccc3[nH]2)cc1	SK-MEL-28 melanoma	rule met
CCCOC(=O)C1(O)CCCC1	SK-MEL-28 melanoma	rule met
CCCS(=O)(=O)c1nc(NC2CC2)cc(-c2ccc3c(ccn3C3CC(C)(C)NC(C)(C)C3)c2)n1	SK-MEL-28 melanoma	rule not met

Item Nc1nc(-c2cc3ccccc3o2)cc(=O)c(=O)[nH]1 with growth of 60% or above? rule met

Item O=S(=O)(O)CCl with growth of 60% or above? rule met

Item CC(=O)c1cc(C(=O)c2ccc3c(c2)Sc2ccccc2N3)c2cc(C)ccn12 with growth of 60% or above? rule not met

Item COc1ccc(C2=NN(c3ccc(S(N)(=O)=O)cc3)C(c3cn(-c4ccccc4)nc3-c3ccc(Cl)cc3)C2)cc1 (centres undefined) with growth of 60% or above? rule met

Item NC(CC(N)C(=O)O)C(=O)O (centres undefined) with growth of 60% or above? rule met

Item O=C(Nc1cccc(Cl)c1)c1cc([N+](=O)[O-])ccc1O with growth of 60% or above? rule not met

Item Nc1c(C(=O)Nc2cccc([N+](=O)[O-])c2)sc2nc3c(cc12)C(O)CCC3 (centres undefined) with growth of 60% or above? rule not met

Item Cc1cc(-c2ccccc2)c(C)n1Cc1ccc(Cl)cc1 with growth of 60% or above? rule not met

Item CCOP(=O)(CCN1CCN(CCCCCOc2cc3c(cc2OC)C(=O)N2CCC[C@H]2C=N3)CC1)OCC with growth of 60% or above? rule met

Item COc1cc(-c2csc(NC(=O)c3cc(C(F)(F)F)cc(C(F)(F)F)c3)n2)cc(OC)c1OC with growth of 60% or above? rule not met
